Ref: the supplement of paper PMC8975748

# System: Saccharomyces cerevisiae BY4741 SeMeCo community
# Assay Summary: z-score of subpopulation abundance vs DMSO median, subpopulation auxotrophic for LU; higher = larger share of this subpopulation than in DMSO controls
# Experimental Setup: 10 µM; 24 h; SM minimal medium; subpopulation (auxotrophy): LU
Where a name gives a salt, the structure may show the parent alone.
Label False if z-score of subpopulation abundance falls below 0.3; label True in every other case.

Compound | Discrete Label
CN[C@@H]1[C@@H](O)[C@@H](O[C@@H]2[C@@H](O)[C@H](O[C@H]3OC(CN)=CC[C@H]3N)[C@@H](N)C[C@H]2N)OC[C@]1(C)O [Sisomicin sulfate] | False
CC1(C)[C@H](C(=O)O)N2C(=O)C[C@H]2S1(=O)=O [Sulbactam sodium] | True
CCOC(=O)C1=C(COCCN)NC(C)=C(C(=O)OC)[C@@H]1c1ccccc1Cl | False
C=C[C@]1(C)C[C@@H](OC(=O)CS[C@@H]2C[C@H]3CC[C@@H](C2)N3C)[C@]2(C)[C@H](C)CC[C@]3(CCC(=O)[C@H]32)[C@@H](C)[C@@H]1O | True
CCn1cc(C(=O)O)c(=O)c2ccc(C)nc21 | False
CCN1CCCC1CNC(=O)c1cc(S(=O)(=O)CC)c(N)cc1OC (configuration not stated) [Amisulpride] | True
CCOC(=O)c1c(CSc2ccccc2)n(C)c2cc(Br)c(O)c(CN(C)C)c12 [Arbidol HCl] | False

###

# Test system: Saccharomyces cerevisiae BY4741 SeMeCo community
# Assay Summary: z-score of subpopulation abundance vs DMSO median, subpopulation auxotrophic for UM; higher = larger share of this subpopulation than in DMSO controls
# Experimental Setup: 10 µM; 24 h; SM minimal medium; subpopulation (auxotrophy): UM
Structures can show the parent of a compound that is named as a salt.

Compound | z-score of subpopulation abundance
Cc1nc(Nc2ccc(F)cc2)nc(N2CCc3ccccc3C2C)c1C (configuration not stated) [Revaprazan Hydrochloride] | 1.11
c1ccc(-c2ccc(C(c3ccccc3)n3ccnc3)cc2)cc1 (configuration not stated) [Bifonazole] | 0.46
O=C(Nc1cc(Cl)cc(Cl)c1O)c1c(O)c(Cl)cc(Cl)c1Cl [Oxyclozanide] | -1.83
CC[C@@H]1/C=C(\C)C[C@H](C)C[C@H](OC)[C@H]2O[C@@](O)(C(=O)C(=O)N3CCCC[C@H]3C(=O)O[C@H](/C(C)=C/[C@@H]3CC[C@H](Cl)[C@H](OC)C3)[C@H](C)[C@@H](O)CC1=O)[C@H](C)C[C@@H]2OC [Pimecrolimus] | -0.8
CCCNC(C)C(=O)Nc1ccccc1C (configuration not stated) [Prilocaine] | -0.84
C[n+]1ccccc1/C=N/O [Pralidoxime chloride] | 1.18
COCCCOc1ccnc(C[S+]([O-])c2nc3ccccc3[nH]2)c1C (configuration not stated) [Rebeprazole sodium] | 0.75
COC(=O)C1=C(C)NC(C)=C(C(=O)OC2CCCN(Cc3ccccc3)C2)C1c1cccc([N+](=O)[O-])c1 (configuration not stated) [Benidipine HCl] | -0.42
COc1cccc2c1C(=O)c1c(O)c3c(c(O)c1C2=O)C[C@@](O)(C(=O)CO)C[C@@H]3O[C@H]1C[C@H](N)[C@H](O[C@@H]2CCCCO2)[C@H](C)O1 [Pirarubicin] | -3.46
C#CCN[C@@H]1CCc2ccccc21 [Rasagiline Mesylate] | -0.05
CCn1cc(C(=O)O)c(=O)c2ccc(C)nc21 [Nalidixic acid] | -1.42
O=c1ccc2cc(O)c(O)cc2o1 [Esculetin] | -8.53
Cc1nnc(NS(=O)(=O)c2ccc(N)cc2)s1 [Sulfamethizole] | -0.65
C#CCC(Cc1cnc2nc(N)nc(N)c2n1)c1ccc(C(=O)N[C@@H](CCC(=O)O)C(=O)O)cc1 (some centres not stated) [Pralatrexate] | -5.43
Clc1ccc(C(Cn2ccnc2)OCc2ccc(Sc3ccccc3)cc2)c(Cl)c1 (configuration not stated) [Fenticonazole Nitrate] | -3.35
Cc1cc(NS(=O)(=O)c2ccc(N)cc2)nc(C)n1 [sulfaisodimidine] | 0.16
O=C1C(=O)c2ccccc2C(O)=C1C1CCC(c2ccc(Cl)cc2)CC1 (configuration not stated) [Atovaquone] | 0.03
